# target entity: Glucocorticoid receptor (Homo sapiens) (UniProt P04150)
# Sequence (P04150 whole entry, looked up): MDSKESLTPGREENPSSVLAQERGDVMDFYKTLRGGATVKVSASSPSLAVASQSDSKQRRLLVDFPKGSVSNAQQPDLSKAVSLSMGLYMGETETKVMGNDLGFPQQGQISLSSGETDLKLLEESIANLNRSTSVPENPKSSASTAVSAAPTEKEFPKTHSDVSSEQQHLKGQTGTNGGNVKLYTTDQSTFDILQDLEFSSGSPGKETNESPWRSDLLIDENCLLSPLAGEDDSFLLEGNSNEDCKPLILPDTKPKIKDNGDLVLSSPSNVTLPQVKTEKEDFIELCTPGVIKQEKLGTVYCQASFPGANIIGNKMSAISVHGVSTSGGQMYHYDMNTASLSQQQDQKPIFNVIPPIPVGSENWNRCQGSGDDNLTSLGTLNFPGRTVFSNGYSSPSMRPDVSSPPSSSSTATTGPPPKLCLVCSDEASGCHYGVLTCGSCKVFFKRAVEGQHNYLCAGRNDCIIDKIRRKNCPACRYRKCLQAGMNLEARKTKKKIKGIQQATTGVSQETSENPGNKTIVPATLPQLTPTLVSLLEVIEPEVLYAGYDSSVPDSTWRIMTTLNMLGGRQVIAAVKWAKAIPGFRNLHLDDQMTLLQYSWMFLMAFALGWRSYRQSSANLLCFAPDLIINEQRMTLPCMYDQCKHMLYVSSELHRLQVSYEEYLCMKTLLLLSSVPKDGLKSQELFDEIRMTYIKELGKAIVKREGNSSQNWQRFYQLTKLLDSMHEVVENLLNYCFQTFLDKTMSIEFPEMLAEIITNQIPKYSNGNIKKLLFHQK
# experimental protocol: GR-GFP Redistribution (AID 450); also: potency is read from the fitted curve at half-maximal effect
# condition: U2OS GR-GFP nuclear translocation, laser cytometry, 2 h
# Procedure: NIH Molecular Libraries Screening Centers Network [MLSCN] NIH Chemical Genomics Center [NCGC] […] GR-GFP U2OS cells were maintained in DMEM with Glutamax and high glucose, 1% v/v penicillin-streptomycin, and 0.5 mg/mL Geneticin. […] The plates were read by the Acumen Explorer using a 1 x 8 um scan of the whole well area. PI fluorescence triggered the collection of PI and GFP signals. […]
The source made the active and inactive calls.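 The calls were made as follows: active = compounds whose dose series gives a full or clear partial fitted curve of increased nuclear translocation; inconclusive = weak partial curve or effect only at the top dose; inactive = no dose-dependent translocation response.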
Assignment: determine reported Potency for the given compounds.

The examples below pair each entry with its known result.
Cc1nc2cnc(N3CCNCC3)nc2n(Cc2cccs2)c1=O = > 9.22 µM (inactive)
COc1ccc(Oc2ncc3nc(C)c(=O)n(Cc4cccc(OC)c4)c3n2)cc1 = > 9.22 µM (inactive)
Fc1ccc(Nc2ccnc(-c3ccoc3)n2)cc1 = > 46 µM (inactive)
Cn1c(=O)c(CCc2ccccc2)nc2cnc(OCc3ccccc3)nc21 = > 9.22 µM (inactive)
CCNc1ncc2nc(-c3ccc(OC)cc3)c(=O)n(CCOC)c2n1 = > 9.22 µM (inactive)

Would you mind giving Potency for every compound in the list below?
1. c1cncc(CNc2ncncc2-c2cccnc2)c1
2. COc1cccc(-c2cc(NCc3cccs3)ncn2)c1
3. Cc1nc2cnc(N3CCOCC3)nc2n(C[C@H]2CCCO2)c1=O

1: > 46 µM (inactive); 2: > 46 µM (inactive); 3: > 9.22 µM (inactive)

* * *

# target entity: Dual specificity protein kinase CLK4 (Homo sapiens) (UniProt Q9HAZ1)
# Sequence (Q9HAZ1 whole entry, looked up): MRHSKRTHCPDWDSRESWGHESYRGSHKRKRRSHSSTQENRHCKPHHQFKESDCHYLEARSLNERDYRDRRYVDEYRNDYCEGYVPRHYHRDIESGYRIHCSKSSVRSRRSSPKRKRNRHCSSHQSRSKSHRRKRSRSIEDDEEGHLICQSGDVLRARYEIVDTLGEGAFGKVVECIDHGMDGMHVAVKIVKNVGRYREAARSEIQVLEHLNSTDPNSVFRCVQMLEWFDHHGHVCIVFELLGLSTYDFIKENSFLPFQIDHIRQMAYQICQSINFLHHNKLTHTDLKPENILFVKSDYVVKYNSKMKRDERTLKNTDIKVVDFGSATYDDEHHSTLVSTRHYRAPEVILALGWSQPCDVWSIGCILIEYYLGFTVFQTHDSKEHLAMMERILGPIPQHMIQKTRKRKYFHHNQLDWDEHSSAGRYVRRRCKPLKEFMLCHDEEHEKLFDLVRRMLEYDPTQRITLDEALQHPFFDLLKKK
# experimental protocol: qHTS Assay for Inhibitors of CDC-like Kinase 4 (ADP-FP Assay) (AID 1795); also: nearly all actives have a fitted effect of over 60% in size
# condition: Transcreener ADP fluorescence polarization; series mostly up to 50 µM
Records with an inconclusive call do not appear. Activity calls are given as the source filed them. The call rests on the fitted dose curve; in most records, active means well fitted inhibition curve with a large enough effect; inconclusive means small, poorly fitted or top-dose-only effect; inactive means flat fitted curve, though single readings scatter.
Choose one outcome from this list and give only that: y for active, n for inactive

Example entries begin here.
Cc1noc(C)c1-c1ccc2ncnc(Nc3ccc(F)cc3)c2c1 = y
CN(C)Cc1ccccc1-c1nc(N(C)C)c2ccccc2n1 = n
COc1ccc(CNc2cc(-c3ccoc3)ncn2)c(OC)c1 = n
CCNc1ncc2nc(-c3cc(F)cc(F)c3)c(=O)n(C[C@H]3CCCO3)c2n1 = n
CS(=O)(=O)Nc1cccc(-c2cncnc2Nc2ccc(F)cc2)c1 = n

Consider the additional molecule presented here.
Dear all, I need the recorded test outcome for `COc1ccc(-c2nc3cnc(Nc4ccccc4)nc3n(C[C@H]3CCCO3)c2=O)cc1` , thank you.
n

* * *

# experimental protocol: qHTS for Inhibitors of Ubiquitin-specific Protease USP2a Using CHOP2 as the Reporter: Cytotox Assay (AID 652170); also: nearly all actives have a fitted effect of over 70% in size
# condition: HCT116 viability, CellTiter-Glo luminescence, 72 h; series mostly up to 46.1 µM
Results filed as inconclusive are left out. Activity calls are given as the source filed them. The call rests on the fitted dose curve; in most records, active means well fitted cell-killing curve with a large enough effect; inconclusive means small, poorly fitted or top-dose-only effect, or effect the other way; inactive means flat fitted curve, though single readings scatter.
Allowed answers: TRUE (active), FALSE (inactive)

CCCC1CCC(C(=O)Nc2ccc(S(=O)(=O)Nc3nccs3)cc2)CC1 (stereo not given) = FALSE
O=C(Nc1ccc(S(=O)(=O)Nc2nccs2)cc1)c1cccnc1 = FALSE

Recorded test outcome, item `Cc1ccc(S(=O)(=O)n2cc(C(=O)Nc3ccc(-c4ccccc4)cc3)c3ccccc32)cc1`
FALSE

Fill in: this test's call for `COc1ccc(OC)c(C(=O)Nc2nc(-c3ccccc3)cs2)c1` is ___
FALSE

# lookup: test call for CC(C)(C)C1CCC(C(=O)Nc2ccc(S(=O)(=O)Nc3nccs3)cc2)CC1 (stereo not given)
FALSE

Please share the test call associated with `N#Cc1ccc(NS(=O)(=O)c2ccc(NC(=O)Cc3ccc(F)c(Cl)c3)cc2)cc1` .
FALSE

Which outcome was entered for the molecule `Cc1ccc(S(=O)(=O)Nc2cc(C)ccc2C(=O)Nc2nc(-c3ccccc3)cs2)cc1` in this test?
TRUE

What is the recorded call for this molecule in the test? `COc1cccc(NC(=O)c2cc(-c3ccc(C)c(C)c3)nc3ccccc23)c1`
FALSE

Assay outcome for `Cc1ccc(-c2cc(C(=O)Nc3ccccc3)c3ccccc3n2)cc1C` : what was it?
FALSE

Would you mind telling me which call this test gave `Cc1ccc(S(=O)(=O)Nc2ccc(F)cc2C(=O)Nc2nc(-c3ccccc3)cs2)cc1` ?
TRUE

Which outcome did this test record for the molecule `O=C(Nc1ccc(S(=O)(=O)Nc2nccs2)cc1)[C@@H]1CC[C@H](C(=O)c2ccccc2)C1` ?
FALSE

Assay result, entry `O=S(=O)(Nc1nc(CN2CCOCC2)nc2sc3c(c12)CCC3)c1ccc2c(c1)OCCO2` — outcome?
FALSE

Status in this test for `Cc1ccc(S(=O)(=O)Nc2ccccc2C(=O)Nc2nc(-c3ccc(Cl)cc3)cs2)cc1` ?
TRUE

For this molecule, state the assay outcome: `CC(=O)Nc1ccc(S(=O)(=O)Nc2nccs2)cc1`
FALSE
